IC50 values by entry
- target or test system: NS3/4A D168A (Hepatitis C virus genotype 1b, UniProt O92972, D1194A)
- Construct: The NS3/4A construct represented the individual NS3 proteinase domain N-terminally fused with an NS4A co-factor; 6xHis; purchased AnaSpec (Fremont, CA)
- Type: biochemical, HCV genotype 1b, strain HC-J4
- run parameters: recombinant D168A mutant, FRET peptide substrate
Give your result in µM as a bare value.

Below, 4 molecules whose answers are already recorded.
COc1cc(C2C(C(=O)Nc3ccc(Cl)c(Cl)c3)=C(C)NC(C)=C2C(=O)Nc2ccc(Cl)c(Cl)c2)ccc1O
3.02
Cc1n[nH]c(=S)n1Nc1nc(SCc2ccccc2)nc2n[nH]c(Cc3nn[nH]n3)c12
8.4
Oc1ccccc1-c1nnc2sc3c(Cl)c4nn5c(-c6ccccc6O)nnc5sc4c(Cl)c3nn12
3.35
S=c1[nH]n2c(COc3cc(Cl)c(OCc4nnc5sc(=S)[nH]n45)cc3Cl)nnc2s1
1.28

Give the reported IC50 for this molecule. Clc1ccc(Nc2nc(SCc3ccccc3)nc3n[nH]c(Cc4nc5ccccc5s4)c23)cc1
12.7

Consider the molecule Clc1ccc(OCc2nn3c(CCc4nnc5sc(COc6ccc(Cl)cc6)nn45)nnc3s2)cc1 and give its recorded IC50.
4.45

Specify IC50 for O=C(Nc1ccccc1)c1cc(S(=O)(=O)Nc2nc3ncccc3[nH]2)c(SSc2cc(Cl)c(C(=O)Nc3ccccc3)cc2S(=O)(=O)Nc2nc3ncccc3[nH]2)cc1Cl and stop.
0.25

Tell us which IC50 value is on record for S=c1[nH]nc(Nc2nc(SCc3ccccc3)nc3n[nH]c(Cc4nn[nH]n4)c23)s1
1.21

====

- target or test system: NS3/4A A156T (Hepatitis C virus genotype 1b, UniProt O92972, A1182T)
- Construct: The NS3/4A construct represented the individual NS3 proteinase domain N-terminally fused with an NS4A co-factor; 6xHis
- run parameters: recombinant A156T mutant, FRET peptide substrate
endpoint name: pIC50
Scale: pIC50 equals -log10([C]), with [C] in mol/L.

Cc1n[nH]c(=S)n1Nc1nc(SCc2ccccc2)nc2n[nH]c(Cc3nn[nH]n3)c12 [Compound 3]
4.79
S=c1[nH]nc(Nc2nc(SCc3ccccc3)nc3n[nH]c(Cc4nn[nH]n4)c23)s1 [Compound 6]
5.51
S=c1[nH]n2c(COc3cc(Cl)c(OCc4nnc5sc(=S)[nH]n45)cc3Cl)nnc2s1 [Compound 7]
5.95
Oc1ccccc1-c1nnc2sc3c(Cl)c4nn5c(-c6ccccc6O)nnc5sc4c(Cl)c3nn12 [Compound 4]
5.18
Clc1ccc(Nc2nc(SCc3ccccc3)nc3n[nH]c(Cc4nc5ccccc5s4)c23)cc1 [Compound 5]
4.73

Identify the reported pIC50 for the following entry. O=C(Nc1ccccc1)c1cc(S(=O)(=O)Nc2nc3ncccc3[nH]2)c(SSc2cc(Cl)c(C(=O)Nc3ccccc3)cc2S(=O)(=O)Nc2nc3ncccc3[nH]2)cc1Cl [Compound 1]
6.14

Check the records and state pIC50 for COc1cc(C2C(C(=O)Nc3ccc(Cl)c(Cl)c3)=C(C)NC(C)=C2C(=O)Nc2ccc(Cl)c(Cl)c2)ccc1O [Compound 8]
4.75

Quick one: give measured pIC50 for Clc1ccc(OCc2nn3c(CCc4nnc5sc(COc6ccc(Cl)cc6)nn45)nnc3s2)cc1 [Compound 2]
4.76

====

- target or test system: HCV NS3/4A (wild-type) (Hepatitis C virus genotype 1b)
- Construct: The NS3/4A construct represented the individual NS3 proteinase domain N-terminally fused with an NS4A co-factor; 6xHis; purchased AnaSpec (Fremont, CA)
- run description: NS3/4A activity assay with FRET peptide substrate, wild-type enzyme
- Assay type: biochemical, HCV genotype 1b, strain HC-J4
- run parameters: wild-type NS3/4A 10 nM, Ac-DE-D(Edans)-EE-Abu-ψ-[COO]-AS-K(Dabsyl)-NH2 10 µM, 30 min pre-incubation; read-out: NS3/4A IC50
- From the text: Reagents were purchased from Sigma unless indicated otherwise. The FRET substrate Ac-DE-D(Edans)-EE-Abu-ψ-[COO]-AS-K(Dabsyl)-NH2, purified recombinant wild-type NS3/4A from HCV genotype 1b, strain HC-J4, and the mutants with the V36M, R155K, A156T, D168A and V170A resistance mutations were from AnaSpec (Fremont, CA). The NS3/4A construct represented the individual NS3 proteinase domain N-terminally fused with an NS4A co-factor and tagged with a 6xHis tag. […]
endpoint name: pIC50
Notebook: values listed as pIC50 are -log10 of the concentration (mol/L).

O=C(c1ccco1)c1c(C(F)(F)F)n([O-])c2cc(Cl)c(Cl)cc2[n+]1=O
5.19
S=c1[nH]nc(CCCCc2n[nH]c(=S)n2/N=C/c2ccc(Cl)cc2Cl)n1/N=C/c1ccc(Cl)cc1Cl
5.28
Clc1ccc(OCc2nn3c(CCc4nnc5sc(COc6ccc(Cl)cc6)nn45)nnc3s2)cc1
6.52

Jot down pIC50 (HCV NS3/4A (wild-type) (Hepatitis C virus genotype 1b)) of FC(F)(F)c1nc2nc(Cl)c(Cl)nc2s1 .
5.35

Lab note: record pIC50 of O=C(Nc1ccccc1)c1cc(S(=O)(=O)Nc2nc3ncccc3[nH]2)c(SSc2cc(Cl)c(C(=O)Nc3ccccc3)cc2S(=O)(=O)Nc2nc3ncccc3[nH]2)cc1Cl tested on HCV NS3/4A (wild-type) (Hepatitis C virus genotype 1b).
6.74

Write pIC50 of Cc1n[nH]c(=S)n1Nc1nc(SCc2ccccc2)nc2n[nH]c(Cc3nn[nH]n3)c12 ; system used: HCV NS3/4A (wild-type) (Hepatitis C virus genotype 1b)
6.44

Output reported pIC50 of the compound Clc1ccc(Nc2nc(SCc3ccccc3)nc3n[nH]c(Cc4nc5ccccc5s4)c23)cc1 on HCV NS3/4A (wild-type) (Hepatitis C virus genotype 1b).
6.42

Answer briefly: pIC50 recorded on HCV NS3/4A (wild-type) (Hepatitis C virus genotype 1b) for S=c1[nH]nc(Nc2nc(SCc3ccccc3)nc3n[nH]c(Cc4nn[nH]n4)c23)s1
6.02

====

Listed next: entries and their corresponding NS3/4A D168A FC.
- Tested on: NS3/4A D168A
- Type: biochemical, HCV genotype 1b, strain HC-J4
- run parameters: fold change in IC50 for the mutant compared to WT
Quick one: just the number, no unit, thanks!

The following compounds have reported results that may help.
Clc1ccc(OCc2nn3c(CCc4nnc5sc(COc6ccc(Cl)cc6)nn45)nnc3s2)cc1
14.8
S=c1[nH]nc(Nc2nc(SCc3ccccc3)nc3n[nH]c(Cc4nn[nH]n4)c23)s1
1.3

With those in mind, consider the next compound.
Output NS3/4A D168A FC of O=C(Nc1ccccc1)c1cc(S(=O)(=O)Nc2nc3ncccc3[nH]2)c(SSc2cc(Cl)c(C(=O)Nc3ccccc3)cc2S(=O)(=O)Nc2nc3ncccc3[nH]2)cc1Cl
1.4

====

- target or test system: NS3/4A R155K (Hepatitis C virus genotype 1b, UniProt O92972, R1181K)
- Construct: The NS3/4A construct represented the individual NS3 proteinase domain N-terminally fused with an NS4A co-factor; 6xHis
- run parameters: recombinant R155K mutant, FRET peptide substrate
Each record here notes measured IC50.
Write the number in µM without appending the unit.

O=C(Nc1ccccc1)c1cc(S(=O)(=O)Nc2nc3ncccc3[nH]2)c(SSc2cc(Cl)c(C(=O)Nc3ccccc3)cc2S(=O)(=O)Nc2nc3ncccc3[nH]2)cc1Cl
1.75
S=c1[nH]n2c(COc3cc(Cl)c(OCc4nnc5sc(=S)[nH]n45)cc3Cl)nnc2s1
2.03

Kindly indicate its recorded IC50. Item: Clc1ccc(Nc2nc(SCc3ccccc3)nc3n[nH]c(Cc4nc5ccccc5s4)c23)cc1
9.64

====

A collection of compounds and their measured IC50
- target or test system: DV2 NS2B-NS3 proteinase (Dengue virus type 2, UniProt P29990)
Report the value in µM with no unit label.

Take a look at these entries with their results.
S=c1[nH]nc(Nc2nc(SCc3ccccc3)nc3n[nH]c(Cc4nn[nH]n4)c23)s1
20.6
Cc1n[nH]c(=S)n1Nc1nc(SCc2ccccc2)nc2n[nH]c(Cc3nn[nH]n3)c12
34.5
Clc1ccc(Nc2nc(SCc3ccccc3)nc3n[nH]c(Cc4nc5ccccc5s4)c23)cc1
49.4
O=C(Nc1ccccc1)c1cc(S(=O)(=O)Nc2nc3ncccc3[nH]2)c(SSc2cc(Cl)c(C(=O)Nc3ccccc3)cc2S(=O)(=O)Nc2nc3ncccc3[nH]2)cc1Cl
19.7
COc1cc(C2C(C(=O)Nc3ccc(Cl)c(Cl)c3)=C(C)NC(C)=C2C(=O)Nc2ccc(Cl)c(Cl)c2)ccc1O
38.8

From here, focus on the item given below.
Please indicate recorded IC50 of Oc1ccccc1-c1nnc2sc3c(Cl)c4nn5c(-c6ccccc6O)nnc5sc4c(Cl)c3nn12 measured with DV2 NS2B-NS3 proteinase (Dengue virus type 2, UniProt P29990).
14.3
